- Test target: feline FcRn complex (FcRn-α subunit and β-microglobulin) (feline)
- Method summary: SPR (Biacore), FcRn on SA chip, pH 7.4
Quantity kind: Kd (nM)

feline IgG1a mutant ID No. 290: S252Y, S428Y, Q311W, D312P (antibody, part only; not given: Variable domains, not shown: another chain or arm of the molecule; small tags and cut ends) constant: ASTTAPSVFPLAPSCGTTSGATVALACLVLGYFPEPVTVSWNSGALTSGVHTFPAVLQASGLYSLSSMVTVPSSRWLSDTFTCNVAHPPSNTKVDKTVRKTDHPPGPKPCDCPKCPPPEMLGGPSIFIFPPKPKDTLYISRTPEVTCLVVDLGPDDSDVQITWFVDNTQVYTAKTSPREEQFNSTYRVVSVLPILHWPWLKGKEFKCKVNSKSLPSPIERTISKAKGQPHEPQVYVLPPAQEELSRNKVSVTCLIKSFHPPDIAVEWEITGQPEPENNYRTTPPQLDSDGTYFVYSKLSVDRSHWQRGNTYTCSVYHEALHSHHTQKSLTQSPGK: 254
feline IgG1a mutant ID No. 251: S428M, Q311Y (antibody, part only; not given: Variable domains, not shown: another chain or arm of the molecule) constant: ASTTAPSVFPLAPSCGTTSGATVALACLVLGYFPEPVTVSWNSGALTSGVHTFPAVLQASGLYSLSSMVTVPSSRWLSDTFTCNVAHPPSNTKVDKTVRKTDHPPGPKPCDCPKCPPPEMLGGPSIFIFPPKPKDTLSISRTPEVTCLVVDLGPDDSDVQITWFVDNTQVYTAKTSPREEQFNSTYRVVSVLPILHYDWLKGKEFKCKVNSKSLPSPIERTISKAKGQPHEPQVYVLPPAQEELSRNKVSVTCLIKSFHPPDIAVEWEITGQPEPENNYRTTPPQLDSDGTYFVYSKLSVDRSHWQRGNTYTCSVMHEALHSHHTQKSLTQSPGK: 20.3
